- target-under-test: Nuclear receptor subfamily 1 group I member 3 (Homo sapiens) (UniProt Q14994)
- Sequence (Q14994 whole entry, looked up): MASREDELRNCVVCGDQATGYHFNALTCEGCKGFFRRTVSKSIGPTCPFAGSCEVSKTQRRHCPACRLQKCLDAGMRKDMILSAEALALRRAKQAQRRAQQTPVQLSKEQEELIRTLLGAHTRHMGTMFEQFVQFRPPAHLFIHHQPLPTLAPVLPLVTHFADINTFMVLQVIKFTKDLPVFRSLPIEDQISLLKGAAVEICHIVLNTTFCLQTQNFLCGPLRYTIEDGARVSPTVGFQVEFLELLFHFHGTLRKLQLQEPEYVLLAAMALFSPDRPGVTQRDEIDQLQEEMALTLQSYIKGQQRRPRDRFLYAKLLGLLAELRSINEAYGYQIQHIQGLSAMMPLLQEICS
- test-description: qHTS assay to identify small molecule antagonists of the constitutive androstane receptor (CAR) signaling pathway (AID 1224838);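 note: HepG2 cells stably expressing hCAR with CYP2B6 luciferase reporter stimulated by CITCO; % is set by controls: 0 for no effect and ±100 for the full control effect; nearly all actives have a fitted effect of over 40% in size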
- test-context: HepG2-CYP2B6-hCAR luciferase, CITCO-stimulated, 24 h; series mostly up to 92.4 µM
Inconclusive results are not listed. The source made the active and inactive calls. Calls come from the whole dose curve; as a rule, active = well fitted inhibition curve with a large enough effect in the repeat runs; inconclusive = weak or mixed curves, or effect the other way; inactive = no such curve, though single readings can be large or run the other way.
Thanks in advance; please answer with one of these: Y for active, N for inactive

              compound  category_label
0  COS(=O)(=O)C(F)(F)F               N

Q: Recorded test call requested for CCCCC(=O)OCC(=O)[C@H]1[C@H](C)C[C@H]2[C@@H]3C[C@H](F)C4=CC(=O)C=C[C@]4(C)[C@@]3(F)[C@@H](O)C[C@@]21C
Ans: N

Q: Recorded test call requested for Cc1cc(N)c2cc(NC(=O)Nc3ccc4nc(C)cc(N)c4c3)ccc2n1
Ans: N

Q: Recorded test call requested for CC(C)OC(=O)C(C)N(C(=O)c1ccccc1)c1ccc(F)c(Cl)c1 (configuration not stated)
Ans: N

###

- test-description: A CellTox Green Cytotoxicity Assay to monitor cytotoxicity in HepG2 cells - 8 hour (AID 1224890); note: % is set by controls: 0 for no effect and ±100 for the full control effect; nearly all actives have a fitted effect of over 45% in size
- test-context: CellTox Green fluorescence; series mostly up to 76.8 µM
- Description: National Center for Advancing Translational Sciences [NCATS] NIH Chemical Genomics Center [NCGC] U.S. Environmental Protection Agency [EPA] National Institutes of Environmental Health Sciences [NIEHS] National Toxicology Program [NTP] Cell-based models are critical for drug discovery. […] Viable cells produce no appreciable increases in fluorescence. Therefore, the fluorescence signal produced by the binding interaction with dead cell DNA is proportional to cytotoxicity. […]
Results filed as inconclusive are left out. Calls of active or inactive are those of the source. The call rests on the fitted dose curve; in most records, active means well fitted activation curve with a large enough effect in the repeat runs; inconclusive means weak or mixed curves; inactive means flat fitted curve, though single readings scatter.
quantity-kind: cytotoxicity increase

The following molecules have reported results that may help.
                                   molecule                  recorded_value
0  N=c1ccn2c(n1)O[C@H]1[C@H](O)[C@@H](CO)O[C@H]12                        inactive
1                       c1ccc(-c2ccccn2)nc1                        inactive
2  Cc1ccc(C(C)OC(=O)C2(C)CCC(C(=O)O)C2(C)C)cc1 (stereo unspecified)                        inactive
3                                  CC(=O)NO                        inactive
4  C/C(=C(\CCOP(=O)(O)O)SC(=O)c1ccccc1)N(C=O)Cc1cnc(C)nc1N  0.403% [at 6.97 µM] (inactive)

Below are some molecules; for each one, tell me its cytotoxicity increase.
1. C=C1[C@H]2CC[C@@H]3[C@H]2C(C)(C)CCC[C@]13C
2. CCC(C)(C)CC
3. CCCCCCCCCCO[C@@H]1O[C@H](CO)[C@@H](O)[C@H](O)[C@H]1O
4. CC(C)OC(=O)C(C)N(C(=O)c1ccccc1)c1ccc(F)c(Cl)c1 (stereo unspecified)
5. CCC(=O)O[C@]1(C(=O)CCl)[C@@H](C)C[C@H]2[C@@H]3CCC4=CC(=O)C=C[C@]4(C)[C@@]3(F)[C@@H](O)C[C@@]21C

Ans:
inactive
inactive
inactive
inactive
inactive

The recorded cytotoxicity increase for entry Nc1ccc([N+](=O)[O-])c(C(F)(F)F)c1 equals inactive

###

- test-description: qHTS assay for identifying genotoxic compounds that show differential cytotoxicity against isogenic chicken DT40 cell lines with known DNA damage response pathways - wild type cell line (AID 743012); note: nearly all actives have a fitted effect of over 60% in size
- test-context: DT40 wild type chicken cells viability, CellTiter-Glo, 40 h; series mostly up to 68.4 µM
Inconclusive results are not listed. Active and inactive are the calls of the source. Calls come from the whole dose curve; as a rule, active = well fitted cell-killing curve with a large enough effect in the repeat runs; inconclusive = weak or mixed curves, or effect the other way; inactive = no such curve, though single readings can be large or run the other way.
Thanks in advance; please answer with one of these: TRUE = active, FALSE = inactive

Q: Recorded test call requested for C[C@H](CCC(=O)O)[C@H]1CC[C@H]2[C@@H]3CC[C@@H]4C[C@H](O)CC[C@]4(C)[C@H]3C[C@H](O)[C@]12C
Ans: FALSE

Q: Recorded test call requested for O=C(OCCCCCCOC(=O)c1ccccc1)c1ccccc1
Ans: TRUE

###

- test-description: qHTS RealTime-Glo MT Cell Viability Assay in HepG2 cells - 40 hour (AID 1224870); note: % is set by controls: 0 for no effect and ±100 for the full control effect; nearly all actives have a fitted effect of over 50% in size
- test-context: RealTime-Glo luminescence; series mostly up to 76.8 µM
- From the text: National Center for Advancing Translational Sciences [NCATS] NIH Chemical Genomics Center [NCGC] U.S. Environmental Protection Agency [EPA] National Institutes of Environmental Health Sciences [NIEHS] National Toxicology Program [NTP] U.S. Food and Drug Administration [FDA] Measure of cell viability is critical in the cell-base assay. Analysis of cell viability is necessary for the characterization of cell responses to cytotoxic drugs and environmental stress. […]
Inconclusive results are not listed. The source made the active and inactive calls. Calls follow the shape of the dose curve; as a rule, active = well fitted cell-killing curve with a large enough effect in the repeat runs; inconclusive = weak or mixed curves, or effect the other way; inactive = flat fitted curve, though single readings scatter.
quantity-kind: activity change, negative = cytotoxic

The following compounds have reported results that may help.
In [3]: df
Out[3]:
                                   compound                  recorded_value
0                             O=C1CCC(=O)O1                        inactive
1  CN(C)c1ccc(/C=C/c2ccc([N+](=O)[O-])cc2)cc1  -1.99% [at 6.97 µM] (inactive)
2             S=C([S-])NCCNC(=S)[S-].[Mn+2]                        inactive
3  C#Cc1cccc(Nc2ncnc3cc(OCCOC)c(OCCOC)cc23)c1                        inactive
4  CCCCC/C=C\C/C=C\CCCCCCCC(=O)NC(C)c1ccccc1 (configuration not stated)                        inactive

Below are some compounds; for each one, tell me its activity change, negative = cytotoxic.
1. CC(C)O.CC(C)O.CCOC(=O)/C=C(\C)O.CCOC(=O)/C=C(\C)O.[Ti]
2. CCCCC(CC)COC(=O)CCCCCCCCC(=O)OCC(CC)CCCC (configuration not stated)

Ans:
1: inactive; 2: inactive

Below are some compounds; for each one, tell me its activity change, negative = cytotoxic.
1. Brc1c2ccccc2c(Br)c2ccccc12
2. O=CC1CC=CCC1 (configuration not stated)
3. CCCCC(CC)CN1C(=O)C2C3C=CC(C3)C2C1=O (configuration not stated)

Ans:
1. 1.43% [at 6.97 µM] (inactive)
2. inactive
3. inactive

Below are some compounds; for each one, tell me its activity change, negative = cytotoxic.
1. CCNc1cc(O)ccc1C
2. C=C1C(=C/C=C2\CCC[C@]3(C)[C@@H]([C@H](C)/C=C/[C@@H](O)C4CC4)CC[C@@H]23)C[C@@H](O)C[C@@H]1O

Ans:
inactive
inactive

###

- target-under-test: Estrogen receptor (Homo sapiens)
- test-description: qHTS assay to identify small molecule agonists of the estrogen receptor alpha (ER-alpha) signaling pathway (AID 743075);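 note: HEK293 GripTite cells with ER-alpha and UAS-driven beta-lactamase reporter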
- test-context: HEK293 ER-alpha-UAS-bla, beta-lactamase FRET ratio, 18 h; series mostly up to 70.1 µM
The source made the active and inactive calls. Calls follow the shape of the full dose curve.
Thanks in advance; please answer with one of these: class 1 for active, class 0 for inactive

                              molecule                 target_under_test  category_label
0  CC1CCC(=O)C1=O (stereo unspecified)  Estrogen receptor (Homo sapiens)         class 0
1        Cc1cc(C(=O)O)ccc1[N+](=O)[O-]  Estrogen receptor (Homo sapiens)         class 0

Q: Recorded test call requested for c1ccc(-c2ccccn2)nc1
Ans: class 0

Q: Recorded test call requested for CCc1c(C(=O)NN2CCCCC2)nn(-c2ccc(Cl)cc2Cl)c1-c1ccc(Br)cc1
Ans: class 0

Q: Recorded test call requested for CCCCCCCCCCCC(=O)OC[C@@H](O)[C@H]1OC[C@H](OCCO)[C@H]1OCCO
Ans: class 0

Q: Recorded test call requested for COc1ccc(C(=O)c2ccc(OC)cc2O)c(O)c1
Ans: class 1

Q: Recorded test call requested for CCO[Si](CCCCl)(OCC)OCC
Ans: class 0

Q: Recorded test call requested for C=C(C)C(=O)OCCOCC
Ans: class 0

Q: Recorded test call requested for C=CCOc1ccccc1OCC(O)CNC(C)C (stereo unspecified)
Ans: class 0

Q: Recorded test call requested for C=C1C(=C/C=C2\CCC[C@]3(C)[C@@H]([C@H](C)/C=C/[C@@H](O)C4CC4)CC[C@@H]23)C[C@@H](O)C[C@@H]1O
Ans: class 0

Q: Recorded test call requested for CC(=O)c1ccc2c(c1)N(CCCN1CCC(CCO)CC1)c1ccccc1S2
Ans: class 0

Q: Recorded test call requested for C/C(=C(\CCOP(=O)(O)O)SC(=O)c1ccccc1)N(C=O)Cc1cnc(C)nc1N
Ans: class 0

Q: Recorded test call requested for CCC(CC)Nc1ccc(C)c(C)c1
Ans: class 0

Q: Recorded test call requested for CCN(CC)CCNc1ccc(CNC=O)c2sc3ccc(OC)cc3c(=O)c12
Ans: class 1

Q: Recorded test call requested for C[C@@H](c1ncncc1F)C(O)(Cn1cncn1)c1ccc(F)cc1F (stereo partly specified)
Ans: class 0

Q: Recorded test call requested for O=C(O)c1ccc(S(=O)(=O)O)cc1C(=O)O
Ans: class 0

Q: Recorded test call requested for Nc1cccc([N+](=O)[O-])c1
Ans: class 0

Q: Recorded test call requested for CCCCCCCCCCCCCCCCOS(=O)(=O)O
Ans: class 0

Q: Recorded test call requested for CCCCCCCCO[C@@H]1O[C@H](CO)[C@@H](O)[C@H](O)[C@H]1O
Ans: class 0
